src = paper PMC5949348

measured target: CYP3A4 (Homo sapiens)
Construct: purchased XenoTech
Sequence (P08684 whole entry): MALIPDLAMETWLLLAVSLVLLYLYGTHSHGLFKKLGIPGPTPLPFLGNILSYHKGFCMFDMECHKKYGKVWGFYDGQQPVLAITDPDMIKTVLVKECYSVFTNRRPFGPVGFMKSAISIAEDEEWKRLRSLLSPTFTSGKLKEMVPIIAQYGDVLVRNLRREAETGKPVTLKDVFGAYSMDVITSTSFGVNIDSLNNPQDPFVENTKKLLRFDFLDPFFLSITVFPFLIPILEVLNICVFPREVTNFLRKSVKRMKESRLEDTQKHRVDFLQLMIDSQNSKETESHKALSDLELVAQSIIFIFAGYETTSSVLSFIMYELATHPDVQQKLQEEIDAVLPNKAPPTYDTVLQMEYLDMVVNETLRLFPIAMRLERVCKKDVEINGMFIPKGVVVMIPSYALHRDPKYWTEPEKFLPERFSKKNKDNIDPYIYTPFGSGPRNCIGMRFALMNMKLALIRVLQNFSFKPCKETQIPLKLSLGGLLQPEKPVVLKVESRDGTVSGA
protocol notes: Inhibition of sepin-1 on CYP3A4
Format: in vitro ADME
assay conditions: FDA classification bands; read-out: Inhibition potency class on CYP3A4
pIC50: −log10 of the molar value.
readout name: pIC50

### Prompt GET /values?readout=pIC50&system=CYP3A4 (Homo sapiens)&item= CC1(C)[N+]([O-])=c2ccc([N+](=O)[O-])cc2=[N+]1[O-] [Sepin-1]
### Response 5.00 to 6.00
